Data provenance is the supplement of paper PMC12042874.

Assay: amyloid nucleation score (Sup35N fusion, yeast selection) (log enrichment); library NNK2; higher = more nucleation; inactive = no reads after selection;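 also: zero at mode of non-aggregating sequences after 7 days selection at 30°C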
metric_name: amyloid nucleation score

{"columns": ["substance", "metric_name", "result"],
 "data": [
  ["IVAEMW", "amyloid nucleation score", 1.75],
  ["ITAFTNRVKFWS", "amyloid nucleation score", 0.132],
  ["FPQWFHFGCNLARSL", "amyloid nucleation score", -0.613],
  ["TSAENRLMMAEARKYCVRSF", "amyloid nucleation score", 3.66],
  ["WMYTSRPNSSQTIRGWRATY", "amyloid nucleation score", -0.046],
  ["HDMEYKVMDRIARM", "amyloid nucleation score", -0.501],
  ["SMPMGGERIWVIYCRFQVLS", "amyloid nucleation score", -0.585],
  ["NGNIKFFHRMRRTRHVACLY", "amyloid nucleation score", 0.223],
  ["NSVFKGFLNRFRF", "amyloid nucleation score", 2.32],
  ["LVMTHAMFVSLWCGRTVFLL", "amyloid nucleation score", 0.014],
  ["VYNWGGRLKP", "amyloid nucleation score", 0.147],
  ["SDRGLRACQCVCWDFDSISM", "amyloid nucleation score", 6.21],
  ["NLSILTICMFLPVDFGI", "amyloid nucleation score", 6.53],
  ["IVDGEKYDLVWMFEGHG", "amyloid nucleation score", -0.536],
  ["RTHPTCSVCVKLYPLGTPRR", "amyloid nucleation score", 2.38],
  ["NIGSVKN", "amyloid nucleation score", 0.098],
  ["TYHYLMYLLVRRNMGDVNGA", "amyloid nucleation score", 3.49],
  ["EYVRFYLMGISWEAEKSHAL", "amyloid nucleation score", 4.23],
  ["PYGVSPWVRVVSCSIEGNWT", "amyloid nucleation score", -0.289],
  ["EDCVMISTCNFLFTINVLEA", "amyloid nucleation score", 6.38],
  ["LKQDKGITGEVVGVRILGS", "amyloid nucleation score", 0.22],
  ["CHFSYKECRSAVRMLQYNGA", "amyloid nucleation score", 2.54],
  ["DKANTRGGLRCYKMHQFAFV", "amyloid nucleation score", 1.15],
  ["NTTSARSERR", "amyloid nucleation score", -0.212],
  ["SFLYLPDGTDMI", "amyloid nucleation score", 0.171],
  ["SAPRNNVATLTEHLERLVLR", "amyloid nucleation score", -0.767],
  ["FGRRYIMLRKYIDVIDLSIH", "amyloid nucleation score", -0.843],
  ["KIVGCGHSRMLIMTWC", "amyloid nucleation score", 0.733],
  ["SNVDVFVTKMWRATQSCFRL", "amyloid nucleation score", 3.67],
  ["IVQLVIAVTGMFLYWNYAFL", "amyloid nucleation score", -0.461],
  ["TKLEYNTE", "amyloid nucleation score", 0.118],
  ["IRYDLQQGQFPPTRMECLVL", "amyloid nucleation score", 0.437],
  ["VVWVSITKWATRAVISHGDT", "amyloid nucleation score", 0.617],
  ["YYSMGSTCGILDQDSLNVDQ", "amyloid nucleation score", -1.34],
  ["IGCGARLEGKMMACMSRDRQ", "amyloid nucleation score", 0.461],
  ["LMDRLFMKCDGLAG", "amyloid nucleation score", 0.216],
  ["LLCQITRVAIPCHVCGDDVA", "amyloid nucleation score", 3.81],
  ["SINLLLGAGVVGGGLVLYGS", "amyloid nucleation score", 2.45],
  ["YSYTTVFNIASNTTNELATC", "amyloid nucleation score", -0.375],
  ["FACNLGFMTSSFMRWSNTSA", "amyloid nucleation score", 0.356],
  ["FILDAVGNFFCFVRHTTPQV", "amyloid nucleation score", 0.106],
  ["SFSDVLNSGVRCF", "amyloid nucleation score", 0.234],
  ["CVTDATVKNYI", "amyloid nucleation score", -1.42],
  ["KMLSWP", "amyloid nucleation score", -0.412],
  ["TLWHARTVKRDKWSSYGVGR", "amyloid nucleation score", 1.83],
  ["KASHSVTRSLSVAYI", "amyloid nucleation score", -0.714],
  ["PVHSAVATVLTLVNGKIGGA", "amyloid nucleation score", 1.24],
  ["VRAQKRSWGQGSL", "amyloid nucleation score", 1.23],
  ["LDNYCFHAASYSQHNSSTGP", "amyloid nucleation score", 0.804],
  ["HCGCMEQA", "amyloid nucleation score", 0.486],
  ["CCVYAASLLPFQLVAALLTD", "amyloid nucleation score", 0.91],
  ["YLCGFNIVPHRYINFRVWTE", "amyloid nucleation score", 4.39],
  ["TRWCYSDFPMVKLFLLKFIT", "amyloid nucleation score", 0.416],
  ["VFYCKRVAMDNTSCRNSSYL", "amyloid nucleation score", -0.536],
  ["ALNPVCL", "amyloid nucleation score", 0.623],
  ["VILYNGFDLSGSD", "amyloid nucleation score", 0.286],
  ["KRKFRMWSQNIFLKVGNILA", "amyloid nucleation score", -1.47],
  ["MDWSSGSYGSLSSSHAIERF", "amyloid nucleation score", -0.093],
  ["LRNRMAERDLYLYAICSAGL", "amyloid nucleation score", 0.331],
  ["VVRVLLVWMFLLTLWHHLVN", "amyloid nucleation score", -0.158],
  ["RHPGPAL", "amyloid nucleation score", 0.857],
  ["STAWKCEVYRRV", "amyloid nucleation score", 1.14],
  ["GVRHGHTRSVGYFSVSYTSL", "amyloid nucleation score", -1.05],
  ["RSRSYHADWACTVVCLCYS", "amyloid nucleation score", 4.24],
  ["VTICIGVAFYVFCTSTSNCM", "amyloid nucleation score", 5.24]
]}

###

Assay: amyloid nucleation score (Sup35N fusion, yeast selection) (log enrichment); library NNK3; higher = more nucleation; inactive = no reads after selection
metric_name: amyloid nucleation score

{"columns": ["substance", "metric_name", "result"],
 "data": [
  ["RSFSLGRLSYYRGVTNILLA", "amyloid nucleation score", "inactive"],
  ["WTNSSQHLSESLWYVDYCQG", "amyloid nucleation score", "inactive"],
  ["DWATFNLIKAVYLRRCSCGL", "amyloid nucleation score", "inactive"],
  ["MGWALIGSQSPYVCHNMFVR", "amyloid nucleation score", "inactive"],
  ["VCSVTFMLVLLCMRHCLITR", "amyloid nucleation score", "inactive"],
  ["LTELSETVPVVKRWKCLDYF", "amyloid nucleation score", -0.807],
  ["RPGYHSVVKHAKRLVEVNR", "amyloid nucleation score", "inactive"],
  ["IESSYFNNNRFGRHVVKQVG", "amyloid nucleation score", "inactive"],
  ["YFCSFREVRSHGQTLR", "amyloid nucleation score", "inactive"],
  ["FCNCNMFYDLCLCAHGMPSA", "amyloid nucleation score", 2.99],
  ["YNKWCLHLCLRNLSMEEGMD", "amyloid nucleation score", 1.87],
  ["PSGVTSCLKEWDSRDHGHRH", "amyloid nucleation score", "inactive"],
  ["GKCVGEPPAQSEKTWRNGSL", "amyloid nucleation score", "inactive"],
  ["LKLSSC", "amyloid nucleation score", 0.739],
  ["FTWSVHKVDEVCHLLETGDA", "amyloid nucleation score", "inactive"],
  ["FYPLICQRLKRSNIPGVWP", "amyloid nucleation score", "inactive"]
]}

###

Assay: amyloid nucleation score (Sup35N fusion, yeast selection) (log enrichment); library NNK2; higher = more nucleation; inactive = no reads after selection
Classification scheme (amyloid nucleation score): low interval (below -0.3), middle interval (-0.3 to below 1), high interval (1 or more)

{"columns": ["substance", "class_name"],
 "data": [
  ["VNYSYVATSYRLVAILSNVW", "low interval"],
  ["TFMFDHRIGISDGLSTIMVI", "middle interval"],
  ["SFLIFRDVSFAGEGL", "low interval"],
  ["KHRWII", "middle interval"],
  ["GTTWRRINECCSRANKMAPV", "middle interval"],
  ["YIYLNEKFCITYMRESWNCC", "middle interval"],
  ["DREWVYYCGYWECTMFRCIY", "high interval"],
  ["AYYSVSC", "high interval"],
  ["NYIWVLGYSEVGNTIMYTYH", "high interval"],
  ["DLSDIDRCGRLVNRESILLR", "high interval"],
  ["PLITDFLAGMLSPENVSVPQ", "middle interval"],
  ["RSAYNY", "low interval"],
  ["LCRIDRVWQLGYRWLYQDVV", "high interval"],
  ["SNVFEVGPMGPSR", "middle interval"],
  ["TYKEYCGE", "low interval"],
  ["CIGYLMEIHVFSNDAKVYYL", "high interval"],
  ["PVYSSFYCCYVWHRNFRKYT", "low interval"]
]}
